targetEntity: glucocorticoid receptor (Homo sapiens)
Construct: endogenous in cells; ATCC cat
assayRemarks: Hep G2 TAT Ki: inhibition of dexamethasone-induced TAT in HepG2 cells (96 well)
conditions: challenge of 100 nM dexamethasone, IC50 converted to Ki by Cheng and Prusoff equation
Property: log10(Ki); scope: individual molecules
Note the log scale: values are log10 of Ki expressed in nM.

Worked cases, log10(Ki) given:
>  <molecule>
Cc1cc2c(cnn2-c2ccc(F)cc2)cc1C1CN(S(=O)(=O)c2ccc(C#N)cc2)CCN1CC(C)C(F)(F)F (single isomer, unassigned)

>  <targetEntity>
glucocorticoid receptor (Homo sapiens)

>  <log10(Ki)>
1.40

$$$$
>  <molecule>
Cc1cc2c(cnn2-c2ccc(F)cc2)cc1C1CN(S(=O)(=O)c2cnn(C)c2)CCN1CCC(F)(F)F (single isomer, unassigned)

>  <targetEntity>
glucocorticoid receptor (Homo sapiens)

>  <log10(Ki)>
1.15

$$$$
>  <molecule>
Cc1cc2c(cnn2-c2ccc(F)cc2)cc1C1CN(S(=O)(=O)C2CCC2)CCN1CC(C)C(F)(F)F (single isomer, unassigned)

>  <targetEntity>
glucocorticoid receptor (Homo sapiens)

>  <log10(Ki)>
1.54

$$$$
>  <molecule>
Cc1cc2c(cnn2-c2ccc(F)cc2)cc1C1CN(S(=O)(=O)c2cnn(C)c2)CCN1CC(C)C (single isomer, unassigned) [Example 64]

>  <targetEntity>
glucocorticoid receptor (Homo sapiens)

>  <log10(Ki)>
1.70

$$$$
>  <molecule>
Cc1cc2c(cnn2-c2ccc(F)cc2)cc1C1CN(S(=O)(=O)c2cnn(C)n2)CCN1CC1CCC1 (single isomer, unassigned) [Example 74]

>  <targetEntity>
glucocorticoid receptor (Homo sapiens)

>  <log10(Ki)>
2.20

$$$$

Qu. Which measured log10(Ki) value corresponds to Cc1cc2c(cnn2-c2ccc(F)cc2)cc1C1CN(S(=O)(=O)c2cnn(C)n2)CCN1Cc1ccn(C)n1 (single isomer, unassigned) ?
Ans. 2.18

Qu. Which measured log10(Ki) value corresponds to Cc1cc2c(cnn2-c2ccc(F)cc2)cc1C1CN(S(=O)(=O)c2cnn(C)n2)CCN1CC1CC(F)C1 (single isomer, unassigned) ?
Ans. 1.45

Qu. Which measured log10(Ki) value corresponds to Cc1cc2c(cnn2-c2ccc(F)cc2)cc1C1CN(S(=O)(=O)c2cnn(C)c2C)CCN1CC(C)C (single isomer, unassigned) ?
Ans. 1.28

Qu. Which measured log10(Ki) value corresponds to Cc1cc2c(cnn2-c2ccc(F)cc2)cc1C1CN(S(=O)(=O)c2cncc(F)c2)CCN1CC(C)C (stereo not drawn) ?
Ans. 1.88

Qu. Which measured log10(Ki) value corresponds to COC1CC(N2CCN(S(=O)(=O)c3cnn(C)n3)CC2c2cc3cnn(-c4ccc(F)cc4)c3cc2C)C1 (single isomer, unassigned) ?
Ans. 2.26

Qu. Which measured log10(Ki) value corresponds to Cc1cc2c(cnn2-c2ccc(F)cc2)cc1C1C(C)N(S(=O)(=O)c2cnn(C)n2)CCN1CC(C)C (stereo not drawn) ?
Ans. 1.54

Qu. Which measured log10(Ki) value corresponds to Cc1cc2c(cnn2-c2ccc(F)cc2)cc1C1CN(S(=O)(=O)c2cnn(C)n2)CCN1C(C)C (stereo not drawn) ?
Ans. 2.15

====

targetEntity: glucocorticoid receptor (Homo sapiens, UniProt P04150)
Construct: endogenous in cells; ATCC cat
Sequence (P04150 whole entry): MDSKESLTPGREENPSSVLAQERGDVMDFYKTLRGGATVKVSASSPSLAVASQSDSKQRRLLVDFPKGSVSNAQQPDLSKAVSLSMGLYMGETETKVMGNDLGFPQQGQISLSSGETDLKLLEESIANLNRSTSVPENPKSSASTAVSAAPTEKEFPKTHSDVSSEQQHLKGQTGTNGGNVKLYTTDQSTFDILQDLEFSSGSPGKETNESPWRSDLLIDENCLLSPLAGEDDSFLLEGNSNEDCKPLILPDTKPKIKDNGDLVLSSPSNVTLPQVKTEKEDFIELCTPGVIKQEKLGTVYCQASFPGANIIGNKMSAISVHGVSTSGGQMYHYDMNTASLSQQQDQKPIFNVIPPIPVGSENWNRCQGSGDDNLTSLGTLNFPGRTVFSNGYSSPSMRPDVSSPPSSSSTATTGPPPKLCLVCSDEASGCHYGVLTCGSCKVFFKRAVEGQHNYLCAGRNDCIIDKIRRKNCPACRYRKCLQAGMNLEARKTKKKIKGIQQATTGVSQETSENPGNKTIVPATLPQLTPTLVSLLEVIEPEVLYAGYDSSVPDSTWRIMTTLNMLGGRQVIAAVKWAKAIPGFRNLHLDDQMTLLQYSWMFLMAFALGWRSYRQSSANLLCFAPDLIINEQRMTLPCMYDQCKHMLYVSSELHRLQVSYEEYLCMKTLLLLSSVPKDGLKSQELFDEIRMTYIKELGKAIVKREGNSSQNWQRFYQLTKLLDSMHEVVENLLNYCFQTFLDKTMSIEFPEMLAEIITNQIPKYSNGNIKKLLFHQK
assayRemarks: Hep G2 TAT Ki: inhibition of dexamethasone-induced TAT in HepG2 cells (96 well)
conditions: challenge of 100 nM dexamethasone, IC50 converted to Ki by Cheng and Prusoff equation
quantityMeasured: pKi
Reminder that pKi means the negative base-10 logarithm of the concentration expressed in mol/L.

>  <molecule>
Cc1cc2c(cnn2-c2ccc(F)cc2)cc1C1CN(S(=O)(=O)N2CCOCC2)CCN1CC(C)C (single isomer, unassigned)

>  <measured>
7.39

$$$$
>  <molecule>
Cc1nc(S(=O)(=O)N2CCN(CCC(F)(F)F)C(c3cc4cnn(-c5ccc(F)cc5)c4cc3C)C2)cs1 (single isomer, unassigned)

>  <measured>
8.19

$$$$
>  <molecule>
Cc1ccc(S(=O)(=O)N2CCN(CC(C)C)C(c3cc4cnn(-c5ccc(F)cc5)c4cc3C)C2)cn1 (single isomer, unassigned)

>  <measured>
7.72

$$$$
>  <molecule>
Cc1cc2c(cnn2-c2ccc(F)cc2)cc1C1CN(S(=O)(=O)c2cncs2)CCN1CC(C)C (single isomer, unassigned)

>  <measured>
7.82

$$$$
>  <molecule>
Cc1cc2c(cnn2-c2ccc(F)cc2)cc1C1CN(S(=O)(=O)c2cnn(C)n2)CCN1CC(C)(C)O (stereo not drawn)

>  <measured>
6.59

$$$$

Consider now this further molecule.
Qu. Which measured pKi value corresponds to COCCS(=O)(=O)N1CCN(CC(C)C)C(c2cc3cnn(-c4ccc(F)cc4)c3cc2C)C1 (single isomer, unassigned) [Example 45] ?
Ans. 6.29

====

targetEntity: glucocorticoid receptor (Homo sapiens, UniProt P04150)
Construct: endogenous in cells; ATCC cat
assayRemarks: Hep G2 TAT IC50: inhibition of dexamethasone-induced TAT in HepG2 cells (384 well)
Format: cell-based
quantityMeasured: pIC50
Reminder that pIC50 means the negative base-10 logarithm of the concentration expressed in mol/L.

>  <compound>
Cc1cc2c(cnn2-c2ccc(F)cc2)cc1C1CN(S(=O)(=O)N2CCOCC2)CCN1CCc1ccccc1 (single isomer, unassigned)

>  <quantityMeasured>
pIC50

>  <measured>
5.40

$$$$
>  <compound>
Cc1cc2c(cnn2-c2ccc(F)cc2)cc1C1CN(S(=O)(=O)N2CCOCC2)CCN1CC1CCCC1 (single isomer, unassigned)

>  <quantityMeasured>
pIC50

>  <measured>
5.68

$$$$
>  <compound>
Cc1cc2c(cnn2-c2ccc(=O)n(C)c2)cc1C1CN(S(=O)(=O)N2CCOCC2)CCN1CCC(F)(F)F (stereo not drawn)

>  <quantityMeasured>
pIC50

>  <measured>
5.89

$$$$
>  <compound>
COc1cc2c(cnn2-c2ccc(F)cc2)cc1C1CN(S(=O)(=O)c2csc(C)n2)CCN1CC1CCCC1 (stereo not drawn)

>  <quantityMeasured>
pIC50

>  <measured>
5.78

$$$$
>  <compound>
Cc1cc2c(cnn2-c2ccc(F)cc2)cc1C1CN(S(=O)(=O)N2CCOCC2)CCN1CC1CCC1 (single isomer, unassigned)

>  <quantityMeasured>
pIC50

>  <measured>
5.46

$$$$

Consider now this further compound.
Qu. Which measured pIC50 value corresponds to COc1cc2c(cnn2-c2ccc(F)cc2)cc1C1CN(S(=O)(=O)N(C)C)CCN1CC1CC(F)(F)C1 (stereo not drawn) ?
Ans. 5.65

====

targetEntity: glucocorticoid receptor (Homo sapiens)
Construct: endogenous in cells; ATCC cat
assayRemarks: Hep G2 TAT IC50: inhibition of dexamethasone-induced TAT in HepG2 cells (384 well)
quantityMeasured: pIC50
Reminder that pIC50 means the negative base-10 logarithm of the concentration expressed in mol/L.

Qu. Which measured pIC50 value corresponds to CN(C)S(=O)(=O)N1CCN(CCC(F)(F)F)C(c2cc3cnn(-c4ccc(F)cc4)c3cc2Cl)C1 (stereo not shown) [Example 209] ?
Ans. 5.51

Qu. Which measured pIC50 value corresponds to Cc1ncc(S(=O)(=O)N2CCCN(CCC(F)(F)F)C(c3cc4cnn(-c5ccc(F)cc5)c4cc3C)C2)s1 (stereo not shown) [Example 191] ?
Ans. 5.40

Qu. Which measured pIC50 value corresponds to COc1cc2c(cnn2-c2ccc(F)cc2)cc1C1CN(S(=O)(=O)N2CCOCC2)CCN1CC1CC(F)(F)C1 (stereo not shown) [Example 193] ?
Ans. 5.56

Qu. Which measured pIC50 value corresponds to Cc1cnnc(-n2ncc3cc(C4CN(S(=O)(=O)c5cnn(C)n5)CCN4CCC(F)(F)F)c(C)cc32)c1 (stereo not shown) [Example 204] ?
Ans. 5.41

====

targetEntity: glucocorticoid receptor (Homo sapiens, UniProt P04150)
Construct: endogenous in cells; ATCC cat
assayRemarks: Hep G2 TAT IC50: inhibition of dexamethasone-induced TAT in HepG2 cells (384 well)
Procedure: Glucocorticoid mediated activation of TAT occurs by transactivation of glucocorticoid response elements in the TAT promoter by glucocorticoid receptor/agonist complex. HepG2 cells were cultured using MEME media supplemented with 10% (v/v) foetal bovine serum, 2 mM L-glutamine, 1% (v/v) NEAA, and 1% (v/v) penstrep, at 37° C., 5%/95% (v/v) CO2/air. Compounds were diluted from a 10 mM stock via an Echo Acoustic liquid handler into 10 μL assay media to generate a 10-point half-log dilution curve. […]
quantityMeasured: pIC50
Reminder that pIC50 means the negative base-10 logarithm of the concentration expressed in mol/L.

Worked cases, pIC50 given:
>  <compound>
Cc1cc2c(cnn2-c2ccc(F)cc2)cc1C1CN(S(=O)(=O)N2CCOCC2)CCN1Cc1ccccc1 (single isomer, unassigned)

>  <quantityMeasured>
pIC50

>  <measured>
5.56

$$$$
>  <compound>
Cc1nc(S(=O)(=O)N2CCN(CC3CCCC3)C(c3cc4cnn(-c5ccc(F)cc5)c4cc3C)C2)cs1 (single isomer, unassigned)

>  <quantityMeasured>
pIC50

>  <measured>
5.62

$$$$
>  <compound>
Cc1cc2c(cnn2-c2ccc(F)cc2)cc1C1CN(S(=O)(=O)N(C)C)CCN1CC1CCC1 (single isomer, unassigned)

>  <quantityMeasured>
pIC50

>  <measured>
5.45

$$$$
>  <compound>
Cc1ncc(S(=O)(=O)N2CCN(CC3CCCC3)C(c3cc4cnn(-c5ccc(F)cc5)c4cc3C)C2)s1 (single isomer, unassigned)

>  <quantityMeasured>
pIC50

>  <measured>
5.78

$$$$
>  <compound>
Cc1cc2c(cnn2-c2cc(C)c(=O)n(C)n2)cc1C1CN(S(=O)(=O)c2cnn(C)n2)CCN1CCC(F)(F)F (centres unmarked)

>  <quantityMeasured>
pIC50

>  <measured>
5.90

$$$$

Qu. Give recorded pIC50 with glucocorticoid receptor (Homo sapiens, UniProt P04150) for the following compound: COc1ccc(-n2ncc3cc(C4CN(S(=O)(=O)c5cnn(C)n5)CCN4CCC(F)(F)F)c(C)cc32)cc1 (centres unmarked)
Ans. 5.54

Qu. Give recorded pIC50 with glucocorticoid receptor (Homo sapiens, UniProt P04150) for the following compound: Cc1cc(-n2ncc3cc(C4CN(S(=O)(=O)N5CCOCC5)CCN4CCC(F)(F)F)c(Cl)cc32)cn(C)c1=O (centres unmarked)
Ans. 6.23

Qu. Give recorded pIC50 with glucocorticoid receptor (Homo sapiens, UniProt P04150) for the following compound: Cc1cc2c(cnn2-c2ccc(F)cc2)cc1C1CN(S(=O)(=O)N(C)C)CCN1CC1CC(F)(F)C1 (single isomer, unassigned)
Ans. 5.57

Qu. Give recorded pIC50 with glucocorticoid receptor (Homo sapiens, UniProt P04150) for the following compound: COc1cc2c(cnn2-c2ccc(F)cc2)cc1C1CN(S(=O)(=O)c2csc(C)n2)CCN1CCC(F)(F)F (centres unmarked)
Ans. 5.88

Qu. Give recorded pIC50 with glucocorticoid receptor (Homo sapiens, UniProt P04150) for the following compound: Cc1cc2c(cnn2-c2ccc(F)c(CO)c2)cc1C1CN(S(=O)(=O)c2cnn(C)n2)CCN1CCC(F)(F)F (centres unmarked)
Ans. 5.99
